# System: Candida tropicalis
# protocol-notes: checkerboard drug interaction (FICI, MICc);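 note: simplified diagonal checkerboard screen of antifungal plus FPPS inhibitor combinations, with FICI computed by the Loewe additivity model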
# Type: cell-based
# measurement-context: in combination with 10-ZOL
Label key: TRUE means antifungal MICc under 0.5; FALSE means antifungal MICc of 0.5 or more.

compound: OC(Cn1cncn1)(Cn1cncn1)c1ccc(F)cc1F
cat: FALSE
--
compound: CC[C@H](C)C[C@H](C)CCCCCCCCC(=O)N[C@H]1C[C@@H](O)[C@@H](NCCN)NC(=O)[C@@H]2[C@@H](O)CCN2C(=O)[C@H]([C@H](O)CCN)NC(=O)[C@H]([C@H](O)[C@@H](O)c2ccc(O)cc2)NC(=O)[C@@H]2C[C@@H](O)CN2C(=O)[C@H]([C@@H](C)O)NC1=O
cat: TRUE
--
compound: CC(=O)N1CCN(c2ccc(OCC3COC(Cn4ccnc4)(c4ccc(Cl)cc4Cl)O3)cc2)CC1 (stereo not shown)
cat: FALSE
--
compound: CCC(C)n1ncn(-c2ccc(N3CCN(c4ccc(OCC5COC(Cn6cncn6)(c6ccc(Cl)cc6Cl)O5)cc4)CC3)cc2)c1=O (stereo not shown)
cat: TRUE
--
compound: C[C@@H](c1ncncc1F)[C@](O)(Cn1cncn1)c1ccc(F)cc1F
cat: TRUE
